Experiment: solvent given as SMILES
Conditions: in CCCCCC
PARAMETER: emission maximum (nm)

INSERT INTO assay_data (compound, output_unit, observed_measurement) VALUES
  ('c1ccc(N2c3ccc4ccccc4c3-c3c4ccccc4nc[n+]3[B-]2(c2ccccc2)c2ccccc2)cc1', 'nm', 641),
  ('CC1=C2C=CC(C)=[N+]2[B-](F)(F)n2cccc21', 'nm', 504),
  ('CCCCCCc1ccsc1-c1ccc(-c2sc(C(=O)O)cc2CCCCCC)s1', 'nm', 458),
  ('CCCCc1cc(CCCC)c2ccc3c(CCCC)cc(CCCC)c4ccc1c2c43', 'nm', 388),
  ('CCCCC1(c2ccccc2)Nc2c(-c3ccc(N(C)c4ccccc4)cc3)ccc(-c3ccc(N(C)c4ccccc4)cc3)c2N=C1c1ccccc1 (stereo not given)', 'nm', 553),
  ('Cc1c2ccncc2c(C)c2c1[nH]c1ccccc12', 'nm', 390),
  ('CN(C)c1ccc(/C=C2\CCCC2=O)cc1', 'nm', 405),
  ('CCCCC1(CCCC)c2cc(-c3ccc(C=C4C(=O)c5ccccc5C4=O)cc3)ccc2-c2ccc(-c3ccc(C=C4C(=O)c5ccccc5C4=O)cc3)cc21', 'nm', 465),
  ('F[B-]1(F)n2c(ccc2N2CCOCC2)C(c2ccccc2)=C2C=CC(N3CCOCC3)=[N+]21', 'nm', 595),
  ('N#Cc1cccc(N)c1', 'nm', 339.87);

----------
Listed here: items and their measured emission maximum.
Experiment: solvent given as SMILES
Conditions: in CC#N
PARAMETER: emission maximum (nm)

INSERT INTO measurements (molecule, parameter, observed_measurement) VALUES
  ('COc1ccc(-n2nc(C#N)c(N3CCC(N4CCCCC4)CC3)n2)cc1', 'emission maximum', 403),
  ('CCCCC1(c2ccccc2)Nc2c(-c3ccc(N(C)c4ccccc4)cc3)ccc(-c3ccc(N(C)c4ccccc4)cc3)c2N=C1c1ccccc1 (stereo not given)', 'emission maximum', 602),
  ('O=Cc1c(O)c(-c2nc3ccccc3s2)cc2ccccc12', 'emission maximum', 505),
  ('c1ccc2cc(-n3cnc4ccccc43)ccc2c1', 'emission maximum', 376),
  ('C/C=C/c1ccc(OC)cc1', 'emission maximum', 330),
  ('CN(C)c1cccc2c1C(=O)c1ccccc1-2', 'emission maximum', 534),
  ('COc1ccc2c(c1)CCc1c-2nc(N)c(C#N)c1-c1ccc(Br)cc1', 'emission maximum', 408),
  ('N#C/C(=C\c1ccc(C#N)cc1)c1nc(-c2ccccc2)cs1', 'emission maximum', 501),
  ('c1ccc(N2c3ccc4ccccc4c3-c3c4ccccc4nc[n+]3[B-]2(c2ccccc2)c2ccccc2)cc1', 'emission maximum', 677),
  ('CC(C)[Si]1(C(C)C)c2cc(C#N)ccc2-c2ccc(N(c3ccccc3)c3ccccc3)cc21', 'emission maximum', 500);

----------
Assay: solvent given as SMILES
Details: in CC#N
The threshold is inclusive: emission maximum of exactly 500 nm counts as yes (1); values below receive no (0).

INSERT INTO results (compound, assigned_class) VALUES
  ('Cc1cc(=O)oc2cc3c4ccccc4c4ccccc4c3cc12', 'no (0)'),
  ('O=P1(c2ccccc2)c2ccccc2-c2sc3ccccc3c21 (stereo not given)', 'no (0)'),
  ('Cc1ccc(-c2ccc(/C=C/c3cccs3)cn2)nc1', 'no (0)'),
  ('N#Cc1ccc(-c2pc3ccccc3s2)cc1 (stereo not given)', 'no (0)'),
  ('c1ccc(N(c2ccccc2)c2ccc(-c3ncnc4ccccc34)cc2)cc1', 'yes (1)'),
  ('CCC1(CC)c2cc(N(c3ccccc3)c3ccccc3)ccc2-c2c1c1c(c3c2C(CC)(CC)c2cc(N(c4ccccc4)c4ccccc4)ccc2-3)C(CC)(CC)c2cc(N(c3ccccc3)c3ccccc3)ccc2-1', 'no (0)'),
  ('O=C(/C=C/c1ccc(O)c(O)c1)O[C@H](Cc1ccc(O)c(O)c1)C(=O)O', 'no (0)'),
  ('CCOC(=O)CN(CC(=O)OCC)c1ccc(-c2cc(-c3ccccn3)nc(-c3ccccn3)c2)cc1', 'no (0)'),
  ('COc1ccc(/C=C/c2cc(/C=C/c3ccc(N(c4ccccc4)c4ccccc4)cc3)nc(/C=C/c3ccc(N(C)C)cc3)n2)cc1', 'no (0)'),
  ('O=c1cc(C(F)(F)F)c2cc3c4c(c2o1)CCCN4CCC3', 'yes (1)'),
  ('CCCOc1ccc(/C=C/C=C/C=C/c2ccc([N+](=O)[O-])cc2)cc1', 'yes (1)'),
  ('c1ccc(Nc2nc(Nc3ccccc3)nc(Nc3ccc4cc5ccccc5cc4c3)n2)cc1', 'no (0)'),
  ('C(=C\c1cccnc1)/c1ccc(N(c2ccccc2)c2ccccc2)cc1', 'no (0)'),
  ('N#Cc1ccc(-c2nc(-c3ccccc3)c3ccccn23)cc1', 'no (0)'),
  ('Cc1n[nH]c2c1C(c1ccc([N+](=O)[O-])cc1)C(C#N)=C(N)O2 (stereo not given)', 'no (0)'),
  ('CN(C)CCN(Cc1c2ccccc2cc2ccccc12)c1ccc([N+](=O)[O-])cc1', 'no (0)'),
  ('CN(C)c1ccc2c3c(c(=O)oc2c1)C=c1cc2c(cc1O3)=[N+](CCC(=O)O)CCC2', 'yes (1)'),
  ('COC(=O)/C=C/c1ccc2ccc3cccc4ccc1c2c34', 'no (0)');
